All values here come from ChEMBL document CHEMBL1208661.

// values below are reported MIC
# Test system: Staphylococcus aureus
# test_protocol: Antibacterial activity against Staphylococcus aureus Smith after 24 hrs by disc diffusion method
# Format: functional
endpoint_name: MIC (µg/mL)

chemical_structure=Fc1ccccc1-c1nc(-c2cc(Cl)sc2Cl)cs1 target_system="Staphylococcus aureus" sign_qualifier== measurement=100
chemical_structure=CC1(C)S[C@@H]2[C@H](NC(=O)[C@H](N)c3ccccc3)C(=O)N2[C@H]1C(=O)O target_system="Staphylococcus aureus" sign_qualifier=< measurement=6.25
chemical_structure=Nc1nc(-c2cc(Cl)sc2Cl)cs1 target_system="Staphylococcus aureus" sign_qualifier== measurement=6.25
chemical_structure=Clc1cc(-c2csc(-c3cccnc3)n2)c(Cl)s1 target_system="Staphylococcus aureus" sign_qualifier== measurement=100
chemical_structure=Clc1cc(-c2csc(-c3cccc4cccnc34)n2)c(Cl)s1 target_system="Staphylococcus aureus" sign_qualifier== measurement=6.25
chemical_structure=COc1ccccc1-c1nc(-c2cc(Cl)sc2Cl)cs1 target_system="Staphylococcus aureus" sign_qualifier== measurement=6.25

###

# Test system: Escherichia coli
# test_protocol: Antibacterial activity against Escherichia coli after 24 hrs by disc diffusion method
# Type: functional
The source made the active and inactive calls. No cut-off for these calls is given here.
endpoint_name: MIC

compound=Nc1nc(-c2cc(Cl)sc2Cl)cs1 target_system="Escherichia coli" endpoint_name=MIC measurement="6.25 µg/mL"
compound=COc1ccccc1-c1nc(-c2cc(Cl)sc2Cl)cs1 target_system="Escherichia coli" endpoint_name=MIC measurement="6.25 µg/mL"
compound=Clc1cc(-c2csc(-c3cccnc3)n2)c(Cl)s1 target_system="Escherichia coli" endpoint_name=MIC measurement=inactive
compound=Fc1ccccc1-c1nc(-c2cc(Cl)sc2Cl)cs1 target_system="Escherichia coli" endpoint_name=MIC measurement=inactive
compound="CC1(C)S[C@@H]2[C@H](NC(=O)[C@H](N)c3ccccc3)C(=O)N2[C@H]1C(=O)O [AMPICILLIN]" target_system="Escherichia coli" endpoint_name=MIC measurement="< 6.25 µg/mL"
compound=Clc1cc(-c2csc(-c3cccc4cccnc34)n2)c(Cl)s1 target_system="Escherichia coli" endpoint_name=MIC measurement="12.5 µg/mL"

###

# Tested on: Talaromyces marneffei
# test_protocol: Antifungal activity against recultured Penicillium marneffei after 3 to 4 days by serial plate dilution method
# Format: functional
endpoint_name: MIC (µg/mL)

chemical_structure=COc1ccccc1-c1nc(-c2cc(Cl)sc2Cl)cs1 endpoint_name=MIC sign_qualifier== measurement=12.5
chemical_structure=Nc1nc(-c2cc(Cl)sc2Cl)cs1 endpoint_name=MIC sign_qualifier== measurement=12.5
chemical_structure=Clc1cc(-c2csc(-c3cccc4cccnc34)n2)c(Cl)s1 endpoint_name=MIC sign_qualifier== measurement=6.25
chemical_structure=C[C@@H]1[C@H](O)[C@@H](C)/C=C/C=C/C=C/C=C/C=C/C=C/C=C/[C@H](O[C@@H]2O[C@H](C)[C@@H](O)[C@H](N)[C@@H]2O)C[C@@H]2O[C@](O)(C[C@@H](O)C[C@@H](O)[C@H](O)CC[C@@H](O)C[C@@H](O)CC(=O)O[C@H]1C)C[C@H](O)[C@H]2C(=O)O endpoint_name=MIC sign_qualifier=< measurement=6.25

###

# Test system: Klebsiella pneumoniae
# test_protocol: Antibacterial activity against Klebsiella pneumoniae after 24 hrs by disc diffusion method
# Type: functional
The source made the active and inactive calls. The calls are words filed in the database; no cut-off is given here.
endpoint_name: MIC

chemical_structure=Nc1nc(-c2cc(Cl)sc2Cl)cs1 endpoint_name=MIC measurement="12.5 mg/L"
chemical_structure=Clc1cc(-c2csc(-c3cccnc3)n2)c(Cl)s1 endpoint_name=MIC measurement=inactive
chemical_structure=Clc1cc(-c2csc(-c3cccc4cccnc34)n2)c(Cl)s1 endpoint_name=MIC measurement="6.25 mg/L"
chemical_structure=COc1ccccc1-c1nc(-c2cc(Cl)sc2Cl)cs1 endpoint_name=MIC measurement="100 mg/L"
chemical_structure=CC1(C)S[C@@H]2[C@H](NC(=O)[C@H](N)c3ccccc3)C(=O)N2[C@H]1C(=O)O endpoint_name=MIC measurement="< 6.25 mg/L"
chemical_structure=Fc1ccccc1-c1nc(-c2cc(Cl)sc2Cl)cs1 endpoint_name=MIC measurement=inactive
